- Tested on: Aedes aegypti larvae
- method_summary: larval motility relative to same well at 0 h (fraction); higher = more motile (less active compound), active = 0.4 or less
- conditions: 10 µM; 2 h
In this scheme, each record receives a class according to its larval motility; the ranges are class A (below 0.8), class B (0.8 to below 0.9), class C (0.9 or more)

Solved cases (10 shown):
compound	class
CCCCc1ccc(-c2cc(C(=O)O)cc(-c3ccc(Cl)cc3)n2)cc1	class A
COc1ccc(C2CNC(=O)C2)cc1OC1CCCC1 (stereo not given)	class B
COc1ccc(SC(=O)N[C@H](CCC(=O)O)C(=O)O)cc1	class B
CC(C)c1ccc(COc2cccc(-c3cc(S(C)=O)c(C#N)c(=O)[nH]3)c2)cc1 (stereo not given)	class A
C[C@H](NC(CC(=O)c1ccccc1C(F)(F)F)C(=O)O)c1ccccc1 (stereo not given in full)	class B
Cc1cc(NS(=O)(=O)c2ccc(-c3ccc(F)cc3F)cc2)no1	class A
C[C@H]1CC[C@@]2(O)C(C)(C)[C@@H]3CC[C@@]2(C)[C@H]1C3	class A
COc1ccc(SCC(=O)N2c3ccccc3Sc3ccccc32)cc1	class A
CC(C)Oc1ccc(-c2nc(-c3cccc4c3CC[C@@H]4NCCO)no2)cc1C#N	class C
CCc1nc2ccc(Cl)cn2c1C(=O)NCc1ccc(N2CCC(c3ccc(OC(F)(F)F)cc3)CC2)cc1	class C

Could you now consider this next compound?
Q. // return the class label for `CCCCc1ccc(S(=O)(=O)Nc2cc(C)on2)cc1`
A. class A
